Reference source for all entries: ChEMBL document CHEMBL3112573

system: Mycobacterium tuberculosis; test: Antimicrobial activity against Mycobacterium tuberculosis H37Rv SRI 1345 assessed as growth inhibition after 7 days by broth microdilution assay; assay type: functional; details: H37Rv SRI 1345, 168 h
Would you mind telling me the reported MIC of each entry?
Numbers only here, please. The scale is µg/mL.

Specify reported MIC for the compound shown: `Clc1ccc2nc3c(c(-c4ccccc4)c2c1)CCC3`
12.5

Specify reported MIC for the compound shown: `CO[C@H]1/C=C/O[C@@]2(C)Oc3c(C)c(O)c4c(O)c(c(/C=N/N5CCN(C)CC5)c(O)c4c3C2=O)NC(=O)/C(C)=C\C=C\[C@H](C)[C@H](O)[C@@H](C)[C@@H](O)[C@@H](C)[C@H](OC(C)=O)[C@@H]1C`
0.049

Specify reported MIC for the compound shown: `O=[N+]([O-])c1ccc2nc3c(c(-c4ccccc4)c2c1)CCCCC3`
75

Specify reported MIC for the compound shown: `O=[N+]([O-])c1ccc2nc3c(c(-c4ccccc4)c2c1)CCCC3`
12.5
